# Test system: Staphylococcus aureus
# Measurement Description: Antibacterial activity against Staphylococcus aureus assessed as diameter of growth inhibition zone at 2 mg/ml at 37 degC after 24 hrs by agar well diffusion method
# Format: functional
# Run Conditions: read-out: DIZ
Here, each record is paired with measured zone of inhibition at 2000 µg/mL data.
Enter your answer as a number in mm; do not include the unit.

1) O=c1oc2ccc(Cl)cc2cc1-c1csc(N2N=C(c3ccc(Cl)cc3)C[C@@]2(O)C(F)(F)F)n1 | 4.13

GET /values?item= O=c1oc2ccc(Cl)cc2cc1-c1csc(N2N=C(c3ccc(Br)cc3)C[C@@]2(O)C(F)(F)F)n1 &system= Staphylococcus aureus returns zone of inhibition at 2000 µg/mL: 2.07

GET /values?item= O=c1oc2ccc(Br)cc2cc1-c1csc(N2N=C(c3ccc(F)cc3)C[C@@]2(O)C(F)(F)F)n1 &system= Staphylococcus aureus returns zone of inhibition at 2000 µg/mL: 1.87

GET /values?item= O=c1oc2ccc(Br)cc2cc1-c1csc(N2N=C(c3ccc(Cl)cc3)C[C@@]2(O)C(F)(F)F)n1 &system= Staphylococcus aureus returns zone of inhibition at 2000 µg/mL: 2

* * *

# System: Staphylococcus aureus
# Measurement Description: Antibacterial activity against Staphylococcus aureus assessed as diameter of growth inhibition zone at 2 mg/ml at 37 degC after 24 hrs by agar well diffusion method
# Assay type: functional
# Run Conditions: read-out: DIZ
Here, each record is paired with measured zone of inhibition at 2000 µg/mL data.
Enter your answer as a number in mm; do not include the unit.

1) O=c1oc2ccccc2cc1-c1csc(N2N=C(c3ccc(Cl)cc3)C[C@@]2(O)C(F)(F)F)n1 | 4.5
2) C=CC1=C(C(=O)O)N2C(=O)[C@@H](NC(=O)/C(=N\OCC(=O)O)c3csc(N)n3)[C@H]2SC1 [CEFIXIME] | 3.9
3) O=c1oc2ccc(Br)cc2cc1-c1csc(N2N=C(c3ccc(Br)cc3)C[C@@]2(O)C(F)(F)F)n1 | 2.03
4) O=c1oc2ccccc2cc1-c1csc(N2N=C(c3ccc(F)cc3)C[C@@]2(O)C(F)(F)F)n1 | 3.96

Just so you know, measured zone of inhibition at 2000 µg/mL for O=c1oc2ccc(Cl)cc2cc1-c1csc(N2N=C(c3ccc(F)cc3)C[C@@]2(O)C(F)(F)F)n1 came out at 4.93

Just so you know, measured zone of inhibition at 2000 µg/mL for O=c1oc2ccc(Br)cc2cc1-c1csc(N2N=C(C(F)(F)F)C[C@@]2(O)C(F)(F)F)n1 came out at 3.13

* * *

Here, each record is paired with measured zone of inhibition at 2000 µg/mL data.
# Tested on: Staphylococcus epidermidis
# Measurement Description: Antibacterial activity against Staphylococcus epidermidis assessed as diameter of growth inhibition zone at 2 mg/ml at 37 degC after 24 hrs by agar well diffusion method
# Type: functional
# Run Conditions: read-out: DIZ
Enter your answer as a number in mm; do not include the unit.

Please review the entries below; each comes with its answer.
1. O=c1oc2ccc(Cl)cc2cc1-c1csc(N2N=C(c3ccc(Cl)cc3)C[C@@]2(O)C(F)(F)F)n1 | 11.2
2. O=c1oc2ccccc2cc1-c1csc(N2N=C(c3ccc(F)cc3)C[C@@]2(O)C(F)(F)F)n1 | 14
3. O=c1oc2ccc(Br)cc2cc1-c1csc(N2N=C(C(F)(F)F)C[C@@]2(O)C(F)(F)F)n1 | 20.1
4. O=c1oc2ccc(Br)cc2cc1-c1csc(N2N=C(c3ccc(F)cc3)C[C@@]2(O)C(F)(F)F)n1 | 14
5. O=c1oc2ccc(Br)cc2cc1-c1csc(N2N=C(c3ccc(Br)cc3)C[C@@]2(O)C(F)(F)F)n1 | 13.1
6. O=c1oc2ccccc2cc1-c1csc(N2N=C(c3ccc(Cl)cc3)C[C@@]2(O)C(F)(F)F)n1 | 15.1
7. O=c1oc2ccc(Br)cc2cc1-c1csc(N2N=C(c3ccc(Cl)cc3)C[C@@]2(O)C(F)(F)F)n1 | 12.5
8. C=CC1=C(C(=O)O)N2C(=O)[C@@H](NC(=O)/C(=N\OCC(=O)O)c3csc(N)n3)[C@H]2SC1 [CEFIXIME] | 22

Just so you know, measured zone of inhibition at 2000 µg/mL for O=c1oc2ccc(Cl)cc2cc1-c1csc(N2N=C(c3ccc(Br)cc3)C[C@@]2(O)C(F)(F)F)n1 came out at 11.2

Just so you know, measured zone of inhibition at 2000 µg/mL for O=c1oc2ccc(Cl)cc2cc1-c1csc(N2N=C(c3ccc(F)cc3)C[C@@]2(O)C(F)(F)F)n1 came out at 14
